Each record here notes measured Kd.
Biological target: T1, human serum albumin (human, UniProt P02768 25-609)
T1 construct: In the mutant screen wild type HSA came from medium of transfected HeLa cells; also called HSA; wild type HSA
T1 sequence (P02768 25-609 limits assumed): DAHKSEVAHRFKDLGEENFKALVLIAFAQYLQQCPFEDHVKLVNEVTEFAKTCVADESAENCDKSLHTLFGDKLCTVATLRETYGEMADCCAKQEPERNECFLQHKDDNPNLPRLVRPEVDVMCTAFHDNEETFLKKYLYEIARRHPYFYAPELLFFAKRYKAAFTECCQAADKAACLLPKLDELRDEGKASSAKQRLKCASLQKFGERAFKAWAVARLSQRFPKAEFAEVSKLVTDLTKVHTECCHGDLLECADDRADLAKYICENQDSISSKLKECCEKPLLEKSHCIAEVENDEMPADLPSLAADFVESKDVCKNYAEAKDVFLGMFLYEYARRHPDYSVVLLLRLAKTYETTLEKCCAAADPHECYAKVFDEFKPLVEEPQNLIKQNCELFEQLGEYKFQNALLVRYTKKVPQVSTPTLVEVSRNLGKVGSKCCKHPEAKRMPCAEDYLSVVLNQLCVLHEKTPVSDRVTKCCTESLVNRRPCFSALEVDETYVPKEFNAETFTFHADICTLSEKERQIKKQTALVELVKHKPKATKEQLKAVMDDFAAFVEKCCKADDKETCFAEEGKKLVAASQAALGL
Test: SPR, HSA immobilised;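 further: nanobody analytes injected as dilution series across three log units over CM5 chip with amine-coupled antigen, kinetics fitted by 1:1 Langmuir model, optionally with mass transfer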
readout.kind: Kd (nM)

[[record]]
binder = "H11 (VHH) VHH: QVQLVESGGGLVQVGGSLRLSCAASGRTFSNYVMGWFRQAPGKEREFVAYIHWSGSSTSYADSVKGRFTISRDNTKNTMYLQMNSLKPEDTAVYYCTADQYASTLLRAAGEYWGQGTQVTVSS"
units_text = "nM"
recorded_result = 0.061

[[record]]
binder = "H20 (VHH) VHH: EVQLVESGGGLVQAGGSLRLSCTASGPKDTPYTMGWFRQVPGKEREFVASVLWSGINTDYADSVKGRFAISRNNAKNTMYLQMNSLKPEDTAVYYCAAGYGLGFYRTVSQYDYWGHGTQVTVSS"
units_text = "nM"
recorded_result = 0.247

[[record]]
binder = "H3 (VHH) VHH: QVQLVESGGGLVQAGGSLRLSCVASGRTFEPFVMGWFRQAPGKEREFVATISWSGGSLSYADSVKGRFTVSRDNAKNTVYLQMNSLKPEDTAVYYCAAAPGVGNYRYTFQYDYWGQGTQVTVSE"
units_text = "nM"
recorded_result = 0.454

[[record]]
binder = "H25 (VHH) VHH: DVQLVESGGGLVQAGGSLRLSCAASGRTISDYGMAWFRQAPGKEREFVGVITSNSVTTYYADSVKGRFTISRDNTKNTVYLQMISLKPEDTAIYYCAARIPVGFYYNARNYDFWGQGTQVTVSS"
units_text = "nM"
recorded_result = 0.858

[[record]]
binder = "H4 (VHH) VHH: HVQLVESGGGLVQTGGSLRLACAASGRAFSTYAMGWFRQAPGKEREFVASINRSGSSTYYADSVKGRFTISRDNGKDTVYLQMNRLIPEDTAVYYCAADSEGVGFRNMLEYDYWGQGTQVTVSS"
units_text = "nM"
recorded_result = 0.266

